# experimental-system: T1, TX1BP3, O14907
# T1 sequence (O14907 10-122, limits assumed, looked up): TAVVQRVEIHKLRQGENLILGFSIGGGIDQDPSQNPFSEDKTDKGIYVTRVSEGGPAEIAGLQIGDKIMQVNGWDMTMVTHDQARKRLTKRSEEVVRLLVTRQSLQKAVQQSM
# protocol-summary: holdup assay
# Parameters: key: below the threshold = too weak to quantify, mostly under pKd 3.1 to 4
# experimental-parameters: plain residues with an end cap or a label only (N-terminal biotin on a linker: ahx)
result-type: pKd

Record excerpt, results attached:
[[record]]
binder = "PKMKLNETSF [SHKBP1, Q8TBC3]"
result_value = "below the threshold"

[[record]]
binder = "SAPATLSSRA [PDLIM2, Q96JY6]"
result_value = "below the threshold"

[[record]]
binder = "VNENQKEYFF [CNTNAP4, Q9C0A0]"
result_value = "below the threshold"

[[record]]
binder = "KEYDDELTFF [USH1C, Q9Y6N9]"
result_value = "below the threshold"

[[record]]
binder = "HSATSVHTSV [MTMR1, Q13613]"
result_value = 3.8

[[record]]
binder = "ADENEQVSAV [RAPGEF6, Q8TEU7]"
result_value = "below the threshold"

[[record]]
binder = "AKPQPVDSWV [ARVCF, O00192]"
result_value = 4.92

[[record]]
binder = "YNSFLSVTTV [PDZRN3, Q9UPQ7]"
result_value = "below the threshold"


Please give the documented pKd of KDECVIATEV [DLL1, O00548]
below the threshold

Please give the documented pKd of SKKNELFSNL [NHERF1, O14745]
below the threshold
